target: Matrix metalloproteinase-9 (Homo sapiens, UniProt P14780)
Sequence (P14780 whole entry): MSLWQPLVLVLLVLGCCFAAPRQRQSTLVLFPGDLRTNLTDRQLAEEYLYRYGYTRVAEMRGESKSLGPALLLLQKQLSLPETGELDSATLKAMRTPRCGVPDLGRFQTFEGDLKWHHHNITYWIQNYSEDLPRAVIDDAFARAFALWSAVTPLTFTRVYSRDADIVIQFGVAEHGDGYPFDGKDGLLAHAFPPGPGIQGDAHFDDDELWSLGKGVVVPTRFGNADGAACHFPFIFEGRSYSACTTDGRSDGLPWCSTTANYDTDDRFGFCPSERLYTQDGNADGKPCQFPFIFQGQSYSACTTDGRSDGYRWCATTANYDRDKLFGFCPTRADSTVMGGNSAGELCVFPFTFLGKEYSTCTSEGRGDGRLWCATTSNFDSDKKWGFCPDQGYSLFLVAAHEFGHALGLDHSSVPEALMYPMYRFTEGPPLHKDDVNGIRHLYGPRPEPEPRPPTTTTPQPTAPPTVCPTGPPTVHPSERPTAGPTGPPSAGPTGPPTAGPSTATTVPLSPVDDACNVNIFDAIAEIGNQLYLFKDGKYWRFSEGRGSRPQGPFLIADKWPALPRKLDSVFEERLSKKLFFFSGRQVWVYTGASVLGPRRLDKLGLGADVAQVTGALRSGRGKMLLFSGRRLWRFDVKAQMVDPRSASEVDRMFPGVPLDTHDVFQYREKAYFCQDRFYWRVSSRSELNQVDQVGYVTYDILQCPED
measured.parameter: IC50
Write the figure, then the unit, nothing else.

Prompt: State the recorded IC50 for this entry: `COc1ccc(S(=O)(=O)N2C[C@H](NC(=O)CCCN)C[C@@H]2C(=O)NO)cc1`
Response: 53 nM

Prompt: I would be grateful if you could share the reported IC50 for `COc1ccc(S(=O)(=O)N2CCC[C@@H]2C(=O)NO)cc1` .
Response: 22 nM

Prompt: Request the reported IC50 associated with `COc1ccc(S(=O)(=O)N2C[C@H](NC(=O)CCCNC(=O)OC(C)(C)C)C[C@@H]2C(=O)NO)cc1`
Response: 49 nM

Prompt: So what does the record say about IC50 for `COc1ccc(S(=O)(=O)N2C[C@H](NC(=O)C(C)(C)C)C[C@@H]2C(=O)NO)cc1` ?
Response: 13 nM
